- assay.protocol: Pharmacokinetics and tissue distribution of BNP7787 and mesna after i.v. bolus of BNP7787 or mesna in WARD tumour-bearing rats
- Type: in vivo, Fischer rats
- condition.parameters: female, Fischer, rat, tumour / plasma, iv, 1000 mg/kg, after 1000 mg kg^−1 BNP7787 i.v.; read-out: tumour–plasma AUC ratio
- Procedure: The protocol was approved by the ethics committee for animal experiments of the Vrije Universiteit medical center in Amsterdam, The Netherlands. This committee strictly adheres to the standards required by the UKCCCR for the welfare of animals in neoplasia ([Workman et al, 1998]). […] BNP7787 and mesna concentrations were determined selectively in one run using micro-HPLC with a dual electrochemical detector (dual ECD) ([Verschraagen et al, 2003b]). […]
readout.kind: Kp
I only need the number, thanks.

[
  {
    "molecule": "O=S(=O)([O-])CCSSCCS(=O)(=O)[O-].[Na+].[Na+] [BNP7787]",
    "Kp": 0.08
  }
]

Record O=S(=O)(O)CCS [mesna, sodium 2-mercapto ethane sulphonate] , field Kp: 0.7

====

- assay.protocol: Pharmacokinetics and tissue distribution of BNP7787 and mesna after i.v. bolus of BNP7787 or mesna in WARD tumour-bearing rats
- Format: in vivo, Fischer rats
- condition.parameters: female, Fischer, rat, iv; after 1000 mg kg^−1 BNP7787 i.v.; liver; read-out: time of maximal concentration in liver (converted)
readout.kind: Tmax (min)
Write the answer as a number in min, unit excluded.

The value of Tmax measured for the molecule O=S(=O)(O)CCS [mesna, sodium 2-mercapto ethane sulphonate] turned out to be 5

====

- assay.protocol: Pharmacokinetics and tissue distribution of BNP7787 and mesna after i.v. bolus of BNP7787 or mesna in WARD tumour-bearing rats
- Format: in vivo, Fischer rats
- condition.parameters: female, Fischer, rat, all tissue compartments other than kidney / plasma, iv, 1000 mg/kg, after 1000 mg kg^−1 mesna i.v.; all tissue compartments other than kidney; read-out: tissue–plasma AUC ratio
# maps each entry to its Kp

[
  {
    "compound": "O=S(=O)(O)CCS [mesna, sodium 2-mercapto ethane sulphonate]",
    "recorded.result": "< 0.3"
  }
]

Here's the next entry for you.
Data point: O=S(=O)([O-])CCSSCCS(=O)(=O)[O-].[Na+].[Na+] [BNP7787] ; Kp = < 0.3

====

- assay.protocol: Pharmacokinetics and tissue distribution of BNP7787 and mesna after i.v. bolus of BNP7787 or mesna in WARD tumour-bearing rats
- Format: in vivo, Fischer rats
- condition.parameters: female, Fischer, rat, red blood cells / plasma, iv, 1000 mg/kg, after 1000 mg kg^−1 BNP7787 i.v.; read-out: RBC–plasma AUC ratio
readout.kind: Kp
When you answer, write just the number.

[
  {
    "molecule": "O=S(=O)(O)CCS [mesna, sodium 2-mercapto ethane sulphonate]",
    "Kp": 0.1
  }
]

As a next step, examine the molecule that follows.
Per the record, O=S(=O)([O-])CCSSCCS(=O)(=O)[O-].[Na+].[Na+] has Kp of 0.01

====

- assay.protocol: Pharmacokinetics and tissue distribution of BNP7787 and mesna after i.v. bolus of BNP7787 or mesna in WARD tumour-bearing rats
- Type: in vivo, Fischer rats
- condition.parameters: female, Fischer, rat, kidney / plasma, iv, 1000 mg/kg, after 1000 mg kg^−1 BNP7787 i.v.; read-out: kidney–plasma AUC ratio
- Experimental: The protocol was approved by the ethics committee for animal experiments of the Vrije Universiteit medical center in Amsterdam, The Netherlands. This committee strictly adheres to the standards required by the UKCCCR for the welfare of animals in neoplasia ([Workman et al, 1998]). […] BNP7787 and mesna concentrations were determined selectively in one run using micro-HPLC with a dual electrochemical detector (dual ECD) ([Verschraagen et al, 2003b]). […]
Reported Kp values for the following compounds.

[
  {
    "compound": "O=S(=O)(O)CCS [mesna, sodium 2-mercapto ethane sulphonate]",
    "readout.kind": "Kp",
    "recorded.result": 4.5
  }
]

// field: Kp; key: O=S(=O)([O-])CCSSCCS(=O)(=O)[O-].[Na+].[Na+] [BNP7787] ; value = 0.9
